Recorded values, source ChEMBL document CHEMBL1137374.

target: Glucocorticoid receptor (Homo sapiens, UniProt P04150)
Sequence (P04150 whole entry): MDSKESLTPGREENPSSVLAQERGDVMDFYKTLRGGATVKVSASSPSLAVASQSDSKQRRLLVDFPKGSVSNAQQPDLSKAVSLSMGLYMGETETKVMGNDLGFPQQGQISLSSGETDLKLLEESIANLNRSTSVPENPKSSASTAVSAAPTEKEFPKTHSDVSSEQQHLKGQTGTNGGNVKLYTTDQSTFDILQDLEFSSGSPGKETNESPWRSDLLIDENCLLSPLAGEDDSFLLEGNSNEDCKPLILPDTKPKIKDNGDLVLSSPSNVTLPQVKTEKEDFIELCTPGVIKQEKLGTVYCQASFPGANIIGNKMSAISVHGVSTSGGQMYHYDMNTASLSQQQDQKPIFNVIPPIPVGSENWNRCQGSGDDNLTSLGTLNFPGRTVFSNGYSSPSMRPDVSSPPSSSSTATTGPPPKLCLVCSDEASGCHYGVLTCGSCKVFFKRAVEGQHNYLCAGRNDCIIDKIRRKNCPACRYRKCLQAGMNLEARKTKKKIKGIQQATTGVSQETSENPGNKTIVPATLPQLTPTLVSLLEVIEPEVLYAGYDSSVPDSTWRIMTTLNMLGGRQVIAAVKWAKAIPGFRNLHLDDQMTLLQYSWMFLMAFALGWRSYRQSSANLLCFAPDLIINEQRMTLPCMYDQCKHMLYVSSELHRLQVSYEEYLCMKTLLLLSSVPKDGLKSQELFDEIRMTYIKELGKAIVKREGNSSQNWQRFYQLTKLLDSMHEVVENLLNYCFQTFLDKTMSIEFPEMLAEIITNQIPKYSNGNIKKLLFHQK

| smilesCode | Ki |
| --- | --- |
| O=c1cc(C(F)(F)F)c2cc(N(CC(F)(F)F)CC(F)(F)F)ccc2[nH]1 | > 1 µM |
